# Test Target: PD-L1 (Homo sapiens (Human), UniProt Q9NZQ7)
# Sequence (Q9NZQ7 19-238): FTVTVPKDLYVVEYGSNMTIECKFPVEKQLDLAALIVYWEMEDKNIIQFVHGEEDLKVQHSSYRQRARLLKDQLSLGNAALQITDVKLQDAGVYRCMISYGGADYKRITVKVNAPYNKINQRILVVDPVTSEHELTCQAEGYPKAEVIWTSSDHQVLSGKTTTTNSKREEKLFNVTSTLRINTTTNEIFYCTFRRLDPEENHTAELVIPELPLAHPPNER
# Sequence (Q9NZQ7 19-238): as above
# Protocol: PD-L1/PD-L1 dimerization biochemical protein-protein interaction assay (ALPHA)
# Assay type: binding
# Experimental Setup: 0.5 nM His tagged PD-L1 and 0.5 nM FLAG tagged PD-L1, Table 4B, read-out: AC50 PDL1 Dimer 1 nM
Readout Kind: AC50 (nM)

I = COc1nc(O[C@H]2CCc3c(-c4cccc(-c5cc(C)c(CN6C[C@@H]7[C@H](C6)[C@H]7C(=O)O)c(OC)n5)c4Cl)cccc32)c(Cl)cc1CNC[C@@H]1CCC(=O)N1
II = COc1nc(-c2cccc(-c3cccc4c3CC[C@@H]4Oc3nc(OC)c(CN4C[C@H]5C[C@]4(C(=O)O)[C@H]5C)cc3Cl)c2Cl)ccc1CNC[C@@H]1CCC(=O)N1
III = COc1nc(-c2cccc(-c3cccc4c3CC[C@@H]4Oc3nc4c(nc3Cl)c(CN3CC5(CNC(=O)C5)C3)nn4C)c2Cl)ccc1CNC[C@@H]1CCC(=O)N1
Order all 3 entries above by recorded AC50, highest first, lowest last. Give the labels in the order requested. III, I, II

====

# Test Target: PD-1/PD-L1 (Homo sapiens (Human))
# Sequence (Q9NZQ7 19-238): as above
# Protocol: PD-1/PD-L1 biochemical protein-protein interaction assay (ALPHA)
# Type: binding
# Experimental Setup: 0.3 nM His tagged PD-L1, 2.5 nM biotinylated Fc-PD-1, Table 3B, read-out: IC50 PD-L1-PD1
Readout Kind: IC50 (pM)

COc1nc(-c2cccc(-c3cccc4c3CC[C@@H]4Oc3nc(OC)c(CN[C@@H](C)C(=O)O)cc3C)c2Cl)ccc1CNC[C@@H]1CCC(=O)N1 [B-241] | 64
COc1nc(-c2cccc(-c3cccc4c3CC[C@@H]4Oc3nc(OC)c(CN4CCC[C@@H]4C(=O)O)cc3C(F)(F)F)c2Cl)ccc1CNC[C@@H]1CCC(=O)N1 [B-6] | 64
COc1cc(O[C@H]2CCc3c(-c4cccc(-c5ccc(CNC[C@@H]6CCC(=O)N6)c(OC)n5)c4Cl)cccc32)c(C(F)(F)F)cc1CN1CC2CCC1C(C(=O)O)C2 (some centres unmarked) [B-224] | 64
COc1cc(-c2cccc(-c3cccc4c3CC[C@@H]4Oc3nc(OC)c(CNC4(C(=O)O)CC4)cc3Cl)c2Cl)cc(F)c1CNC[C@@H]1CCC(=O)N1 [B-128] | 64
COc1nc(-c2cccc(-c3cccc4c3CC[C@@H]4Oc3cnc(CN4CC[C@@H](C(=O)O)C4)c(OC)n3)c2Cl)ccc1CNC[C@@H]1CCC(=O)N1 [B-156] | 76
COc1nc(-c2cccc(-c3cccc4c3CC[C@@H]4Oc3nc(OC)c(CN[C@H](C(=O)O)C4CC4)cc3C(F)(F)F)c2Cl)ccc1CNC[C@@H]1CCC(=O)N1 [B-268] | 64
COc1nc(-c2cccc(-c3cccc4c3CC[C@@H]4Oc3nc(OC)c(CN4CC[C@@H](C(=O)N=S(C)(=O)NC(=O)C(F)(F)F)C4)cc3Cl)c2Cl)ccc1CNC[C@@H]1CCC(=O)N1 (some centres unmarked) [B-162] | 82
COc1nc(-c2cccc(-c3cccc4c3CC[C@@H]4Oc3nc(OC)c(CN4CC[C@@H](C(=O)O)C4)nc3Br)c2Cl)cnc1CNC[C@@H]1CCC(=O)N1 [B-37] | 64
COc1nc(-c2cccc(-c3cccc4c3CC[C@@H]4Oc3nc(OC)c(CN4CC5CCC4(C(=O)O)CC5)cc3Cl)c2Cl)ccc1CNC[C@@H]1CCC(=O)N1 [B-231] | 64
COc1cc(-c2cccc(-c3cccc4c3CC[C@@H]4Oc3nc(OC)c(CN(C)CC(=O)O)cc3C(F)(F)F)c2Cl)cc(F)c1CNC[C@@H]1CCC(=O)N1 [B-187] | 64
COc1nc(O[C@H]2CCc3c(-c4cccc(-c5cc(F)c(CNC[C@@H]6CCC(=O)N6)c(OC)n5)c4Cl)cccc32)c(C(F)(F)F)cc1CN1CC[C@H](C(=O)O)C1 [B-188] | 64
